# Target Or System: soluble human FGFR2b protein (his tag, in-house generated) (human) (UniProt P21802)
# Sequence (P21802 other isoform, or with tags, fused parts or gaps limits assumed): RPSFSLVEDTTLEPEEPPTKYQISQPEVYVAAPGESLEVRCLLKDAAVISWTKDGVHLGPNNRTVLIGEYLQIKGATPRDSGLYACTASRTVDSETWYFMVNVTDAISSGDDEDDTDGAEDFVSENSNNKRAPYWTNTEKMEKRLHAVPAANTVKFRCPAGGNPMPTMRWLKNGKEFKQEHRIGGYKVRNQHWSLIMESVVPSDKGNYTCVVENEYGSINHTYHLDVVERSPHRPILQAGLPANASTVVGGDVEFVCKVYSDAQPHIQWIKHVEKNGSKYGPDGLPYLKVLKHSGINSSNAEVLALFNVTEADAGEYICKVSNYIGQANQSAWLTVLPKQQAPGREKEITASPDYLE
# Assay Details: SPR, antibody captured by anti-human Fc, human FGFR2b
Catalogue of pKd values
Units for pKd: none; it is -log10 of a concentration expressed in mol/L.

Known results for binders:
*Q* Entry BGAm1371 (antibody, V domains shown) VH: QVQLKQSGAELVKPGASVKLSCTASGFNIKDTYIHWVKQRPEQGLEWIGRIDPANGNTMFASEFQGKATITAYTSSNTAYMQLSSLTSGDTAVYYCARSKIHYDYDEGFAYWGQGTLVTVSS VL: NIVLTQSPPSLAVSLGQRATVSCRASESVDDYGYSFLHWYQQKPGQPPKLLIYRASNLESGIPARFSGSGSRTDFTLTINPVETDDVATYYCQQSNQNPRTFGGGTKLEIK has what pKd?
*A* 7.79

*Q* Entry BGAh9179 (antibody, human IgG1, kappa, V domains shown) VH: QVQLVQSGAEVKKPGASVKVSCKASGYTITDTYIHWVRQAPGQGLEWMGRIDPAEGNTMFASEFQGRVTMTADTSTSTVYMELSSLRSEDTAVYYCARSKIHYDYDEGFAYWGQGTLVTVSS VL: DIVLTQSPDSLAVSLGERATINCRASESVDDYGYSFLHWYQQKPGQPPKLLIYRASNLESGVPDRFSGSGSGTDFTLTISSLQAEDVAVYYCQQSNQNPRTFGGGTKVEIKR has what pKd?
*A* 7.66

Further cases:
*Q* Entry BGAh9239 (antibody, human IgG1, kappa, V domains shown) VH: QVQLVQSGAEVKKPGSSVKVSCKASGYTFSIYWLNWVRQAPGQGLEWMGQIYPENADTNYSGKFKGRVTITADKSTSTAYMELSSLRSEDTAVYFCARGGFDYWGQGTLVTVSS VL: DIQMTQSPSSLSASVGDRVTITCRASENIYSNLAWYQQKPGKAPKLLIYTATNLAEGVPSRFSGSGSGTDFTLTISSLQPEDFATYYCQHFYGILYTFGQGTRLEIKR has what pKd?
*A* 7.43

*Q* Entry BGAm1823 (antibody, V domains shown) VH: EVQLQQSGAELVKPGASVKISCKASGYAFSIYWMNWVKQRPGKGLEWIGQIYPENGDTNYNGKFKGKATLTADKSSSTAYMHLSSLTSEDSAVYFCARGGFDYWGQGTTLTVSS VL: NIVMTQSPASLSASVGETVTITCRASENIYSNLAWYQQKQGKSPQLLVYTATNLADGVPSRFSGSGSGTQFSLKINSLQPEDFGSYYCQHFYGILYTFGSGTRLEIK has what pKd?
*A* 7.62

Entry source: patent US20250222125A1
